Each recorded value in this set is attributed to the supplement of paper PMC4466140.

- Measurement Target: ScSla1-D3
- Assay Info: SPOT peptide array binding signal intensity (averaged, normalized) (arbitrary units (background-subtracted, floor 0; scale differs between SH3 domains)); higher = stronger binding of the SH3 domain to the peptide
Decide by SPOT peptide array binding signal intensity: equal to or exceeding 10 means TRUE, less means FALSE.

RKRAPTPPAPSRSEK: TRUE
NLPKRKPPKLQGPFS: TRUE
QPWTDQFEKLEKEVS: TRUE
NILKRRPLKLEAPSK: FALSE
FVLRYYILIPHEQWD: TRUE
MKRSRPSRSIPYTTP: TRUE
TKRKRPARLIFYDSK: TRUE
NRARYLPQNPDIIAG: FALSE
KFIPSRPAPKPPSSA: TRUE
FPGKKSPRLPHRNKK: FALSE
RRRIAYPFYPFKKLG: FALSE
PIVPSSPAPPLPLSG: FALSE
PELAPKREAPKPPAN: FALSE
RRRDFGAPANKRPRR: TRUE
QQEQNTPPLPPKPKS: FALSE
QLLNPNRRAPRRPLS: TRUE
LYKRKPILLPDPKPL: FALSE
RMVRRRPLRVQFSAR: TRUE
NSMRPPLLIPAATTK: TRUE
NPNRRAPRRPLSTQH: FALSE
